experimental_target: Cathepsin L (Calbiochem, 219402) (Homo sapiens, UniProt P07711)
Construct: purchased Calbiochem 219402
Sequence (P07711 114-333): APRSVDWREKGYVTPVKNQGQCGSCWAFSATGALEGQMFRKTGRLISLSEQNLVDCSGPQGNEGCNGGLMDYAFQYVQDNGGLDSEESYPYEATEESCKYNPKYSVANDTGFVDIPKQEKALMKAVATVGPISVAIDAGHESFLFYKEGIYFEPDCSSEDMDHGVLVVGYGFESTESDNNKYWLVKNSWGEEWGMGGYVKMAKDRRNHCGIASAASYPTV
experimental_protocol: Selectivity study: cathepsin L (Z-Phe-Arg-AMC)
Type: biochemical
applied_conditions: 1 hour at 25° C., read-out: Cathepsins (IC50, nM) L
Below, each of the compounds is paired with its reported IC50 value.
# value in nM; strip the unit string

Task item: Specify IC50 for O=C(NC1(C(=O)NC2CCN(c3ccccc3-n3cccc3)CC2=O)CCCCC1)c1cc2ccccc2o1 (centres unmarked) and stop.
Reply: 103

Task item: Specify IC50 for O=C(NC1(C(=O)NC2CCN(c3ccccc3N3CC=CC3)CC2=O)CCCCC1)c1cc2ccccc2o1 (centres unmarked) and stop.
Reply: 285

* * *

experimental_target: Recombinant human cathepsin K (Homo sapiens, UniProt P43235)
Sequence (P43235 115-329): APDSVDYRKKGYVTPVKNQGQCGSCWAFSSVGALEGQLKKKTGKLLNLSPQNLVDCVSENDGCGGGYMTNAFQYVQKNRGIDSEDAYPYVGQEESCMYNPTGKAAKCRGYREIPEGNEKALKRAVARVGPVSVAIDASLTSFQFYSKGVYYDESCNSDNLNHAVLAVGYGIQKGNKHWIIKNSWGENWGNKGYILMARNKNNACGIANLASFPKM
experimental_protocol: Inhibition of cathepsin K activity (Z-Phe-Arg-AMC fluorescence assay)
applied_conditions: 25 uM Z-Phe-Arg-AMC, pH 5.5, 1 hour at 37° C.
Counter-ions that a name gives are not always drawn.
property_measured: log10 IC50 (log10 of the value in nM)
In plain terms, each number is the log10 of measured IC50 in nM.

Consider the following illustrative entries.
O=C(NC1(C(=O)NC2CCN(c3ccc(Cl)cc3F)CC2=O)CCCCC1)c1cc2ccccc2s1 (stereo not shown) [Example 131]    0.61
COC(=O)Nc1ccccc1N1CCC(NC(=O)C2(NC(=O)c3cc4ccccc4o3)CCCCC2)C(=O)C1 (stereo not shown) [Example 49]    -0.35
CS(=O)(=O)c1ccccc1N1CCC(NC(=O)C2(NC(=O)c3cc4cc(OCCN5CCCCC5)ccc4o3)CCCCC2)C(=O)C1 (stereo not shown) [Example 166, hydrochloride]    -0.15
CS(=O)(=O)c1ccccc1N1CCC(NC(=O)C2(NC(=O)c3ccc(C(F)(F)F)cc3)CCCCC2)C(=O)C1 (stereo not shown) [Example 154]    0.14
CS(=O)(=O)c1ccc(F)cc1N1CCC(NC(=O)C2(NC(=O)c3ccc(Cl)s3)CCCCC2)C(=O)C1 (stereo not shown) [Example 117]    0.33
Cc1ccc(C(=O)NC2(C(=O)NC3CCN(c4ccccc4S(C)(=O)=O)CC3=O)CCCCC2)o1 (stereo not shown) [Example 123]    0.70
O=C(CCc1ccccc1)Nc1ccccc1N1CCC(NC(=O)C2(NC(=O)c3cc4ccccc4o3)CCCCC2)C(=O)C1 (stereo not shown) [Example 54]    0.78
O=Cc1c(Cl)cccc1N1CCC(NC(=O)C2(NC(=O)c3cc4ccccc4o3)CCCCC2)C(=O)C1 (stereo not shown) [Example 19]    0.64

Task item: Specify log10 IC50 for CS(=O)(=O)c1ccccc1N1CCC(NC(=O)C2(NC(=O)c3cc4ccccc4s3)CCCCC2)C(=O)C1 (stereo not shown) [Example 128] and stop.
Reply: -0.17

Task item: Specify log10 IC50 for O=C(NC1(C(=O)NC2CCN(c3ccc([N+](=O)[O-])cc3)CC2=O)CCCCC1)c1cc2ccccc2o1 (stereo not shown) [Example 16] and stop.
Reply: 1.03

Task item: Specify log10 IC50 for CCN(CC)c1ccc(C(=O)NC2(C(=O)NC3CCN(c4ccc(F)cc4S(C)(=O)=O)CC3=O)CCCCC2)cc1 (stereo not shown) [Example 172] and stop.
Reply: -0.24

Task item: Specify log10 IC50 for O=C(NC1(C(=O)NC2CCN(c3ccccc3N3CCOCC3)CC2=O)CCCCC1)c1cc2ccccc2o1 (stereo not shown) [Example 26] and stop.
Reply: 1.30

Task item: Specify log10 IC50 for Cc1ccsc1C(=O)NC1(C(=O)NC2CCN(c3ccccc3S(C)(=O)=O)CC2=O)CCCCC1 (stereo not shown) [Example 121] and stop.
Reply: 0.89

Task item: Specify log10 IC50 for CC(C)S(=O)(=O)c1ccccc1N1CCC(NC(=O)C2(NC(=O)c3ccco3)CCCCC2)C(=O)C1 (stereo not shown) [Example 80] and stop.
Reply: 0.70

* * *

experimental_target: Recombinant human Cathepsin S (Homo sapiens, UniProt P25774)
Sequence (P25774 115-331): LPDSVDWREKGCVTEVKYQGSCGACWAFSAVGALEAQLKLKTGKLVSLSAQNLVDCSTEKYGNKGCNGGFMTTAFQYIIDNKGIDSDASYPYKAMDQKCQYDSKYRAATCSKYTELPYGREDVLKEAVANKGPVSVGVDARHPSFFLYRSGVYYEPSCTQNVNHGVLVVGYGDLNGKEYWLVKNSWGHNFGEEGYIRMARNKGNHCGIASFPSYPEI
experimental_protocol: Selectivity study: cathepsin S (Z-Val-Val-AMC)
Type: biochemical
applied_conditions: 30 minutes at 37° C., read-out: Cathepsins (IC50, nM) S
Below, each of the compounds is paired with its reported IC50 value.

CS(=O)(=O)c1ccccc1N1CCC(NC(=O)C2(NC(=O)c3ccco3)CCCCC2)C(=O)C1 (centres unmarked) [Example 76]    204 nM
CNC(=O)c1ccccc1N1CCC(NC(=O)C2(NC(=O)c3cc4ccccc4o3)CCCCC2)C(=O)C1 (centres unmarked) [Example 62]    > 450 nM
O=C(NC1(C(=O)NC2CCN(c3ccccc3N3CCCS3(=O)=O)CC2=O)CCCCC1)c1cc2ccccc2o1 (centres unmarked) [Example 75]    > 150 nM
O=C(NC1(C(=O)NC2CCN(c3ccccc3-n3cccc3)CC2=O)CCCCC1)c1cc2ccccc2o1 (centres unmarked) [Example 60]    > 150 nM

Task item: Specify IC50 for CN(C)C(=O)c1ccccc1N1CCC(NC(=O)C2(NC(=O)c3cc4ccccc4o3)CCCCC2)C(=O)C1 (centres unmarked) [Example 61] and stop.
Reply: > 300 nM

* * *

experimental_target: Cathepsin L (Calbiochem, 219402) (Homo sapiens, UniProt P07711)
Construct: purchased Calbiochem 219402
experimental_protocol: Selectivity study: cathepsin L (Z-Phe-Arg-AMC)
Assay type: biochemical
applied_conditions: 1 hour at 25° C., read-out: Cathepsins (IC50, nM) L
Threshold-based label: IC50 under 400 nM gives label 1, IC50 not under 400 nM gives label 0.

Task item: Could you please tell me whether IC50 recorded for O=C(NC1(C(=O)NC2CCN(c3ccc(F)cc3N3CCC3=O)CC2=O)CCCCC1)c1ccco1 (stereo not drawn) is less than 400 nM?
Reply: label 0

* * *

experimental_target: Recombinant human cathepsin K (Homo sapiens, UniProt P43235)
experimental_protocol: Inhibition of cathepsin K activity (Z-Phe-Arg-AMC fluorescence assay)
applied_conditions: 25 uM Z-Phe-Arg-AMC, pH 5.5, 1 hour at 37° C.
Counter-ions that a name gives are not always drawn.
Below, each of the compounds is paired with its reported pIC50 value.
pIC50 is defined as minus the log10 of a concentration measured in mol/L.

Consider the following illustrative entries.
CN(C)c1ccc(C(=O)NC2(C(=O)NC3CCN(c4ccc(F)cc4S(C)(=O)=O)CC3=O)CCCCC2)cc1 (centres unmarked) [Example 173, hydrochloride]    8.80
O=C(NC1(C(=O)NC2CCN(c3ccc(F)cc3-n3cccc3)CC2=O)CCCCC1)c1ccco1 (centres unmarked) [Example 99]    8.36
O=Cc1ccccc1N1CCC(NC(=O)C2(NC(=O)c3cc4ccccc4o3)CCCCC2)C(=O)C1 (centres unmarked) [Example 15]    8.84
O=C(NC1(C(=O)NC2CCN(c3ccc(F)cc3N3CCCC3=O)CC2=O)CCCCC1)c1ccco1 (centres unmarked) [Example 95]    7.97
Cc1c(C(=O)NC2(C(=O)NC3CCN(c4ccccc4S(C)(=O)=O)CC3=O)CCCCC2)oc2ccccc12 (centres unmarked) [Example 133]    8.91
CC(C)C(=O)Nc1ccccc1N1CCC(NC(=O)C2(NC(=O)c3cc4ccccc4o3)CCCCC2)C(=O)C1 (centres unmarked) [Example 51]    8.39
CS(=O)(=O)c1ccccc1N1CCC(NC(=O)C2(NC(=O)c3ccc4ccccc4n3)CCCCC2)C(=O)C1 (centres unmarked) [Example 136]    8.79

Here's the next entry for you.
Task item: Given CC(=O)c1ccccc1N1CCC(NC(=O)C2(NC(=O)c3cc4ccccc4o3)CCCCC2)C(=O)C1 (centres unmarked) [Example 6] , report its pIC50 on Recombinant human cathepsin K (Homo sapiens, UniProt P43235).
Reply: 8.57

* * *

experimental_target: Cathepsin L (Calbiochem, 219402) (Homo sapiens)
Construct: purchased Calbiochem 219402
experimental_protocol: Selectivity study: cathepsin L (Z-Phe-Arg-AMC)
Format: biochemical
applied_conditions: 1 hour at 25° C., read-out: Cathepsins (IC50, nM) L
Threshold-based label: IC50 under 400 nM gives 1, IC50 not under 400 nM gives 0.

CC(C)S(=O)(=O)c1ccccc1N1CCC(NC(=O)C2(NC(=O)c3ccco3)CCCCC2)C(=O)C1 (centres unmarked)    1
O=C(NC1(C(=O)NC2CCN(c3ccccc3[N+](=O)[O-])CC2=O)CCCCC1)c1cc2ccccc2o1 (centres unmarked)    0
CS(=O)(=O)c1cc(F)ccc1N1CCC(NC(=O)C2(NC(=O)c3ccco3)CCCCC2)C(=O)C1 (centres unmarked)    1
COc1ccc(N2CCC(NC(=O)C3(NC(=O)c4ccco4)CCCCC3)C(=O)C2)c(S(C)(=O)=O)c1 (centres unmarked)    0

Task item: Could you please tell me whether IC50 recorded for O=C(NC1(C(=O)NC2CCN(c3ccccc3N3CCCC3=O)CC2=O)CCCCC1)c1cc2ccccc2o1 (centres unmarked) is less than 400 nM?
Reply: 0

Task item: Could you please tell me whether IC50 recorded for CNC(=O)c1ccccc1N1CCC(NC(=O)C2(NC(=O)c3cc4ccccc4o3)CCCCC2)C(=O)C1 (centres unmarked) is less than 400 nM?
Reply: 0

Task item: Could you please tell me whether IC50 recorded for O=C(NC1(C(=O)NC2CCN(c3ccccc3N3CCCS3(=O)=O)CC2=O)CCCCC1)c1cc2ccccc2o1 (centres unmarked) is less than 400 nM?
Reply: 1
